// reported Safety margin (LD50 /ED50) for each item listed
Test system: ddy-strain male mice
Assay Notes: Analgesic activity, acetic acid writhing method
Format: in vivo, mouse (ddy-strain male)
Applied Conditions: Table 3, mice, p.o.
Assay Metric: Safety margin (LD50 /ED50)

INSERT INTO measurements (compound, assay_metric, test_value) VALUES
  ('O=C(Cn1c(=O)sc2ccc(Cl)cc21)N1CCN(CCO)CC1 [Control drug II]', 'Safety margin (LD50 /ED50)', 8.5),
  ('OC(CN1CCCCC1)c1cc(-c2ccccc2)on1 (stereo not shown) [Control drug III]', 'Safety margin (LD50 /ED50)', 5.1),
  ('COc1cc(C)nc(-n2nc(C)cc2OC)n1 [Control drug I]', 'Safety margin (LD50 /ED50)', 4.3),
  ('Cc1cccc(N2CCN(CCCCCn3c(=O)c4c(ncn4C)n(C)c3=O)CC2)c1', 'Safety margin (LD50 /ED50)', 22);
